# System: MS2 coat protein
# assay name: apparent KD of MS2 coat protein; designed switch direction (-1 OFF switch, 1 ON switch): 1; higher = weaker reporter binding
# condition summary: input ligand: microRNA oligo, concentration not stated
Please map values of apparent KD of MS2 coat protein to classes as shown: bottom bin = under 20 nM, middle bin = from 20 nM up to 100 nM, top bin = 100 nM and over

Some solved cases for reference:
residue_string="GGAACACAUGAGGAUCACCCAUGUCAAGGAGGUCGAGGAUAUAGGAAAAAAAAAAAAAAAUUAGAAGGUGAGGAGG [V1] (Eterna round: R96, puzzle: Same State 1)" cat="top bin"
residue_string="GGUACCAUCACAGGAUAUGCUAUCCUUUGGGUAGCAGAAGGGUGAUACAUGAGGAUCACCCAUGUGGUGCCAGGGCGUGAGCCC [JL SSNG1 1.91] (Eterna round: R96, puzzle: Same State NG 1)" cat="middle bin"
residue_string="AGAGGAAGGGCAGGAUAUACGACGGAGGACGAGGUAGAAGGGUCCAUGUGAUAACAUGAGGAUCACCCAUGUACCGCGCGACGA [AK SSNG1-V2-18] (Eterna round: R96, puzzle: Same State NG 1)" cat="middle bin"

Looking at UUAAAGAAGUAAGGAUAUACAUGAGGAUCACUCGUAGAAGGUACUAAACAUGAGGAUCACCCAUGUACCGGUCCGUAGACUGGA [Mat - Same State NG 1 - JL mod - D2] (Eterna round: R96, puzzle: Same State NG 1) , which class would you pick?
top bin

Looking at AGCCGAAGCACAGGAUAUACAUGUAUACAUGAGGAUCACCCAUGUAGCAACACGUGGUAGUGAUUGUAGAAGGGUGCUCGGCGC [Omei SS(NG)2 Cv14] (Eterna round: R96, puzzle: Same State NG 2) , which class would you pick?
bottom bin

Looking at UGAAUGGUGAUAGGAUAUACAUGAGGAAUCCUCGUAGAAGGAUCAUGACAUGAGGAUCACCCAUGUAGCCGUCCGUAGACGGCA [JL SSNG1 1.22] (Eterna round: R96, puzzle: Same State NG 1) , which class would you pick?
middle bin

Looking at CGACACACGGCAGGAUAUGCUUAGCAAAGCUAAGCAGAAGGGCCUCAUGUCGUGGAAACGUGACAUGAGGAUCACCCAUGUUGC [Omei SS(NG)1 Cv1] (Eterna round: R96, puzzle: Same State NG 1) , which class would you pick?
bottom bin

Looking at UUGAAGAAUUAAGGAUAUCGAGUACAUAUGUUAAACAUGAGGAUCACCCAUGUGGGUUGCGGUAUCGAGAAGGUAAAUUACAAG [JL SSNG2 1.42] (Eterna round: R96, puzzle: Same State NG 2) , which class would you pick?
middle bin
